protocol: Chemical stability test (HPLC purity)
condition notes: HPLC, initial
endpoint: Initial Parent peak (%)

>>> readout_number("CO[C@@H]1[C@H](OC(=O)/C=C/c2ccc(NCCO)cc2)CC[C@]2(CO2)[C@H]1[C@@]1(C)O[C@@H]1CC=C(C)C")
99.2
>>> readout_number("CO[C@@H]1[C@H](OC(=O)/C=C/c2ccc(Cl)c(NCCO)c2)CC[C@]2(CO2)[C@H]1[C@@]1(C)O[C@@H]1CC=C(C)C")
99.4
>>> readout_number("CO[C@@H]1[C@H](OC(=O)NC(=O)CCl)CC[C@]2(CO2)[C@H]1[C@@]1(C)O[C@@H]1CC=C(C)C [TNP-470, O-chloroacetylcarbamoylfumagillol, reference compound]")
98.7
>>> readout_number("COc1cc(/C=C/C(=O)O[C@@H]2CC[C@]3(CO3)[C@@H]([C@@]3(C)O[C@@H]3CC=C(C)C)[C@@H]2OC)cc(OC)c1OCCO")
99.1

====

protocol: Chemical stability test (HPLC purity)
condition notes: initial vs 1 month at 40±2° C., 75±5% relative humidity
endpoint: change of purity (%)

>>> readout_number("CO[C@@H]1[C@H](OC(=O)/C=C/c2ccc(Cl)c(NCCO)c2)CC[C@]2(CO2)[C@H]1[C@@]1(C)O[C@@H]1CC=C(C)C")
0.5
>>> readout_number("CO[C@@H]1[C@H](OC(=O)/C=C/c2ccc(OCCCCO)cc2)CC[C@]2(CO2)[C@H]1[C@@]1(C)O[C@@H]1CC=C(C)C")
0.1
>>> readout_number("COc1cc(/C=C/C(=O)O[C@@H]2CC[C@]3(CO3)[C@@H]([C@@]3(C)O[C@@H]3CC=C(C)C)[C@@H]2OC)cc(OC)c1OCCO")
0
>>> readout_number("CO[C@@H]1[C@H](OC(=O)/C=C/c2ccc(OCCOCCO)cc2)CC[C@]2(CO2)[C@H]1[C@@]1(C)O[C@@H]1CC=C(C)C")
0.1
>>> readout_number("CO[C@@H]1[C@H](OC(=O)/C=C/c2ccc(OCCOCCOCCO)cc2)CC[C@]2(CO2)[C@H]1[C@@]1(C)O[C@@H]1CC=C(C)C")
0
>>> readout_number("CO[C@@H]1[C@H](OC(=O)C=Cc2ccc(OCCN(C)C)cc2)CC[C@]2(CO2)[C@H]1[C@@]1(C)O[C@@H]1CC=C(C)C [CKD-732, reference compound]")
3.8

====

protocol: Chemical stability test (HPLC purity)
condition notes: HPLC, initial
Exam item: assign criterion met to entries whose Initial Other peaks (%) is below 0.9% and criterion not met to entries at or above 0.9%. Note that a value of exactly 0.9% receives criterion not met.

>>> group("CO[C@@H]1[C@H](OC(=O)/C=C/c2ccc(OCCO)cc2)CC[C@]2(CO2)[C@H]1[C@@]1(C)O[C@@H]1CC=C(C)C")
"criterion met"
>>> group("CO[C@@H]1[C@H](OC(=O)/C=C/c2ccc(OCCOCCO)cc2)CC[C@]2(CO2)[C@H]1[C@@]1(C)O[C@@H]1CC=C(C)C")
"criterion met"
>>> group("CO[C@@H]1[C@H](OC(=O)NC(=O)CCl)CC[C@]2(CO2)[C@H]1[C@@]1(C)O[C@@H]1CC=C(C)C [TNP-470, O-chloroacetylcarbamoylfumagillol, reference compound]")
"criterion not met"
>>> group("COc1cc(C=CC(=O)OC2CCC3(CO3)C(C3(C)OC3CC=C(C)C)C2OC)cc(OC)c1OC (stereo not drawn) [CKD-731, O-(3,4,5-trimethoxycinnamoyl)fumagillol, reference compound]")
"criterion not met"
>>> group("COc1cc(/C=C/C(=O)O[C@@H]2CC[C@]3(CO3)[C@@H]([C@@]3(C)O[C@@H]3CC=C(C)C)[C@@H]2OC)ccc1OCCO")
"criterion not met"
